assay: Noncompartmental pharmacokinetic parameters (Cmax, Tmax, AUC, Racc) in QD and BID cohorts of Form B; format: in vivo, human; conditions: human, plasma, oral, 500 mg, Cohort 4, 500 mg QD of Form B, Day 1; read-out: AUClast, Mean

compound	AUC(0-t) / ng·h/mL
CC(C)N1CCN(c2ccc(Nc3ncc4cc5n(c4n3)C3(CCCCC3)CNC5=O)nc2)CC1 [Compound I]	577

---

test: Noncompartmental pharmacokinetic parameters (Cmax, Tmax, AUC, Racc) in QD and BID cohorts of Form B; format: in vivo, human; conditions: human, plasma, oral, 100 mg, Compound III; 100 mg BID of Form B; Cohort 6; Day 29; read-out: AUClast (Median)

compound	AUC(0-t)
O=C1NCC2(CCCCC2)n2c1cc1cnc(Nc3ccc(N4CCNCC4)cn3)nc12 [Compound III]	9.86 ng·h/mL
